// data source = the supplement of paper PMC10567573

B1: SAT2 (parent)
chain: IIKKVAEVALDKGCSQFRLAVLDW

variants of: B1; experiment: protein stability index of a GFP-peptide fusion (GPS, HEK-293T) (PSI 1-6); higher = more stable; conditions: c terminus: a fixed tail appended;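 further: lentivirally expressed fusions sorted by FACS into six bins by GFP to DsRed ratio, PSI derived from sequencing read proportions per bin multiplied by bin number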
Would you kindly list protein stability index for each of these variants?
Numbers only.

Please review the entries below; each comes with its answer.
Problem: Identify measured protein stability index corresponding to A9N
Solution: 2.8

Problem: For V8H , write its protein stability index.
Solution: 2.58

Problem: Retrieve protein stability index measured for C14S and print it.
Solution: 2.97

Problem: Give a short answer stating reported protein stability index for K3R .
Solution: 2.37

Problem: Give reported protein stability index value for L10C
Solution: 3.52

Now for a further variant.
Problem: Note down protein stability index recorded for K12G
Solution: 3.51
